// melting point lookup, one value per entry
Counter-ions that a name gives are not always drawn.

CCC(CC)Nc1nc(C)nc(Nc2c(C)cc(C)c3nsnc23)c1C : 113 to 115 °C
Cc1nc(Nc2c(Cl)cc(Cl)c3nsnc23)c(C)c(N(C)Cc2ccccc2)n1 : 138 °C
CCN(C)c1nc(C)nc(Nc2c(Cl)cc(Cl)c3nsnc23)c1C : 116 °C
CCN(CC)c1nc(C)nc(Nc2c(Cl)cc(Cl)c3nsnc23)c1C (as salt: fumarate) : 189 to 193 °C
CCCN(CC)c1nc(C)nc(Nc2c(C)cc(C)c3nccnc23)c1C : 109 to 110 °C

Prompt: What value of measured melting point is listed for CCCN(CCC)c1nc(C)nc(Nc2c(Cl)ccc3nsnc23)c1C ?
Response: 77 to 80 °C

Prompt: What value of measured melting point is listed for CCCCN(CC)c1nc(C)nc(Nc2c(C)cc(C)c3nccnc23)c1C ?
Response: 106 to 107 °C

Prompt: What value of measured melting point is listed for CCCN(CC)c1nc(C)nc(Nc2c(Cl)cc(Cl)c3nsnc23)c1C ?
Response: 107 °C

Prompt: What value of measured melting point is listed for C=CCN(CC=C)c1nc(C)nc(Nc2c(Cl)cc(Cl)c3nsnc23)c1C ?
Response: 112 °C

Prompt: What value of measured melting point is listed for CCCN(CC)c1nc(C)nc(Nc2c(Cl)cc(Cl)c3nccnc23)c1C ?
Response: 120 to 123 °C

Prompt: What value of measured melting point is listed for CCCN(CCC)c1nc(C)nc(Nc2c(C)ccc3nsnc23)c1C ?
Response: 95 to 98 °C

Prompt: What value of measured melting point is listed for CCCN(CCC)c1nc(C)nc(Nc2c(Cl)cc(C)c3nccnc23)c1C ?
Response: 107 to 109 °C

Prompt: What value of measured melting point is listed for CCCCN(CC)c1nc(C)nc(Nc2c(Cl)cc(Cl)c3nsnc23)c1C ?
Response: 101 °C

Prompt: What value of measured melting point is listed for CCCCN(C)c1nc(C)nc(Nc2c(Cl)cc(Cl)c3nsnc23)c1C ?
Response: 105 °C

Prompt: What value of measured melting point is listed for CCCN(CCC)c1nc(C)nc(Nc2c(C)cc(C)c3nsnc23)c1C#N ?
Response: 171 to 173 °C

Prompt: What value of measured melting point is listed for CCC(C)Nc1nc(C)nc(Nc2c(C)cc(C)c3nsnc23)c1C (centres unmarked) ?
Response: 88 °C

Prompt: What value of measured melting point is listed for CCCN(CCC)c1nc(C)nc(Nc2c(Cl)cc(Cl)c3nccnc23)c1C ?
Response: 126 to 128 °C

Prompt: What value of measured melting point is listed for CCCCN(CC)c1nc(C)nc(Nc2c(Cl)cc(Cl)c3nccnc23)c1C ?
Response: 117 to 119 °C

Prompt: What value of measured melting point is listed for CCCN(CCC)c1nc(C)nc(Nc2c(C)cc(C)c3nsnc23)c1Cl ?
Response: 106 to 108 °C

Prompt: What value of measured melting point is listed for Cc1nc(NCc2ccccc2)c(C)c(Nc2c(Cl)cc(Cl)c3nsnc23)n1 ?
Response: 126 °C

Prompt: What value of measured melting point is listed for CCCCN(CCCC)c1nc(C)nc(Nc2c(Cl)cc(Cl)c3nsnc23)c1C ?
Response: 56 °C

Prompt: What value of measured melting point is listed for CCCN(CC)c1nc(C)nc(Nc2c(C)cc(C)c3nsnc23)c1C ?
Response: 101 to 102 °C

Prompt: What value of measured melting point is listed for CCCN(CCC)c1nc(C)nc(Nc2c(C)cc(C)c3nccnc23)c1C ?
Response: 94 to 96 °C
